Tested on: cultured human mast cells (CHMC), IgE-induced degranulation
Experiment: CHMC low cell density IgE activation: tryptase assay
Format: cell-based
Settings: CHMC low cell density, 3pt, read-out: LD Tryptase, CHMC, IgE, 3pt
pIC50: −log10 of the molar value.
The compounds listed here are annotated with their pIC50.

The following compounds have reported results that may help.
>  <mol>
CNC(=O)Cn1ccc2ccc(Nc3ncc(F)c(Nc4ccc5c(c4)OCCO5)n3)cc21

>  <pIC50>
> 5.00

$$$$
>  <mol>
CC1(C)Oc2ccc(Nc3nc(Nc4ccc5c(cnn5CCCN5C(=O)CCC5=O)c4)ncc3F)cc2NC1=O

>  <pIC50>
> 5.00

$$$$
>  <mol>
C[C@@H]1Oc2ccc(Nc3nc(Nc4ccc5c(c4)nc(CN4CCOCC4)n5C)ncc3F)cc2NC1=O

>  <pIC50>
> 5.00

$$$$

Q) Consider the compound `CNC(=O)COc1c(C)cc(Nc2ncc(F)c(N(C)c3ccc4c(c3)OCCO4)n2)cc1C` . State its measured pIC50.
A) > 5.00

Q) Consider the compound `Cc1cc(Nc2ncc(F)c(Nc3ccc4c(n3)NC(=O)C(C)(C)O4)n2)cc(C)c1Cl` . State its measured pIC50.
A) > 5.00

Q) Consider the compound `COC(=O)Cn1ccc2cc(Nc3ncc(F)c(Nc4ccc5c(c4)OCCO5)n3)ccc21` . State its measured pIC50.
A) > 5.00

Q) Consider the compound `COC(=O)CN1C(=O)C(C)(C)Oc2ccc(Nc3ccnc(Nc4ccc5c(n4)N(CC(=O)OC)C(=O)C(C)(C)O5)n3)nc21` . State its measured pIC50.
A) < 5.00

Q) Consider the compound `CN(c1ccc2c(c1)OCCO2)c1nc(NN)ncc1F` . State its measured pIC50.
A) < 5.00

Q) Consider the compound `CC1(C)Oc2ccc(Nc3ncc(F)c(Nc4ccc5c(n4)NC(=O)C(C)(C)O5)n3)nc2NC1=O` . State its measured pIC50.
A) > 5.00

Q) Consider the compound `CC1(C)Oc2ccc(Nc3nc(Nc4ccc5c(cnn5CCCNS(C)(=O)=O)c4)ncc3F)nc2NC1=O` . State its measured pIC50.
A) > 5.00

Q) Consider the compound `Cn1nc(N)c2cc(Nc3ncc(F)c(Nc4ccc5c(n4)NC(=O)C(C)(C)O5)n3)ccc21` . State its measured pIC50.
A) > 5.00

Q) Consider the compound `CN1C(=O)C(C)(C)Oc2ccc(Nc3nc(Nc4cccc(-c5ncco5)c4)ncc3F)nc21` . State its measured pIC50.
A) > 5.00

Q) Consider the compound `C[C@@H]1Oc2ccc(Nc3nc(Nc4ccc5c(c4)nc(N4CCOCC4)n5C)ncc3F)cc2NC1=O` . State its measured pIC50.
A) > 5.00

Q) Consider the compound `CN1C(=O)C(C)(C)Oc2ccc(Nc3nc(Cl)ncc3F)nc21` . State its measured pIC50.
A) < 5.00

Q) Consider the compound `COC(=O)Cn1ccc2cc(Nc3ncc(F)c(Nc4ccc5c(c4)NC(=O)C(C)(C)O5)n3)ccc21` . State its measured pIC50.
A) > 5.00

Q) Consider the compound `CC(C)c1cccc(Nc2ncc(F)c(Nc3ccc4c(n3)NC(=O)C(C)(C)O4)n2)c1` . State its measured pIC50.
A) > 5.00
